- Test system: pBMC from patients with CLL
- test-summary: Cytotoxicity of several antineoplastic agents on pBMC (LC90), fixed volume flow cytometry
- Assay type: cell-based, human
- details: pBMC of CLL patient #14, ex vivo; in µg/mL
- Excerpt: The necessary peripheral blood (PB) samples from adult patients diagnosed with chronic lymphatic leukaemia (CLL) were collected into heparin during routine diagnosis prior to administration of chemotherapy.
Label 1 when LC90 is strictly below 0.09; at or above that, label -1.

compound	answer-label
Nc1nc(F)nc2c1ncn2[C@@H]1O[C@H](COP(=O)(O)O)[C@@H](O)[C@@H]1O [Fludarabine phosphate]	-1
C[C@]12C=CC(=O)C=C1CC[C@@H]1[C@@H]2[C@@H](O)C[C@@]2(C)[C@H]1CC[C@]2(O)C(=O)CO	-1
CC[C@]1(O)C[C@H]2CN(CCc3c([nH]c4ccccc34)[C@@](C(=O)OC)(c3cc4c(cc3OC)N(C=O)[C@H]3[C@@](O)(C(=O)OC)[C@H](OC(C)=O)[C@]5(CC)C=CCN6CC[C@]43[C@@H]65)C2)C1	1

Hi there! Is LC90 for "Nc1nc(Cl)nc2c1ncn2[C@H]1C[C@H](O)[C@@H](CO)O1" below 0.09, do you know?
1
